System: 993429-296-R-J1-PDC complex spheroid growth, percent test/control;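 note: spheroids exposed to compounds for seven days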
Test: Anticancer human tumor 993429-296-R-J1-PDC patient-derived uterine sarcoma cell line growth inhibition [Asc]
Conditions: second compound 3 µM; first compound 0.1 µM; active compounds read low
QUANTITY MEASURED: viability, T/C (%)
Give bare numbers, in %.

Reference set (2 entries):
Form field viability, T/C for item O=C(c1cc(Cc2n[nH]c(=O)c3ccccc23)ccc1F)N1CCN(C(=O)C2CC2)CC1 + CCN1C(C(=O)NC23CCC(C(=O)O)(CC2)CC3)C(c2cccc(Cl)c2F)C2(C(=O)Nc3cc(Cl)ccc32)C12CCCCC2 on 993429-296-R-J1-PDC complex spheroid growth, percent test/control: 90.3

Form field viability, T/C for item CCN1CCN(Cc2ccc(Nc3ncc(F)c(-c4cc(F)c5nc(C)n(C(C)C)c5c4)n3)nc2)CC1 + CCN1C(C(=O)NC23CCC(C(=O)O)(CC2)CC3)C(c2cccc(Cl)c2F)C2(C(=O)Nc3cc(Cl)ccc32)C12CCCCC2 on 993429-296-R-J1-PDC complex spheroid growth, percent test/control: 77.8

# next compound below
Form field viability, T/C for item C=CC(=O)N1CCN(c2nc(=O)n(-c3c(C)ccnc3C(C)C)c3nc(-c4c(O)cccc4F)c(F)cc23)C(C)C1 (stereo not drawn) + CCN1C(C(=O)NC23CCC(C(=O)O)(CC2)CC3)C(c2cccc(Cl)c2F)C2(C(=O)Nc3cc(Cl)ccc32)C12CCCCC2 on 993429-296-R-J1-PDC complex spheroid growth, percent test/control: 87.6
